TARGET SYSTEM: T1, CRIPT (Hydra vulgaris)
T1 chain: YRQTSC
EXPERIMENTAL DETAILS: stopped-flow

BINDER: DLG4 PDZ3 PDZ3 (protein) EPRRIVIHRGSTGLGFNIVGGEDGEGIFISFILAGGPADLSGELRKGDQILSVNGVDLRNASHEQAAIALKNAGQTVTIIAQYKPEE
Kd [nM]: 360
